- Tested on: 991263-137-R1-J2-PDC complex spheroid viability;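 note: spheroids exposed to compounds for 7 days before readout; 100% = DMSO vehicle control viability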
- PROTOCOL_TEXT: Anticancer human tumor 991263-137-R1-J2-PDC patient-derived colon adenocarcinoma cell line growth inhibition [POLQ]
- ASSAY_SETUP: second compound 0.0316 µM; first compound 10 µM; stronger effect = lower value
PARAMETER: viability, T/C (%)
Give bare numbers, in %.

Consider the reported viability, T/C for these compounds:
COc1cc2cc(C(=O)CCC(=O)O)sc2cc1OC + Cc1cccc(N(C)C(=O)C2C(O)CCN2c2nc(C)cc(C(F)(F)F)c2C#N)c1 = 81.8
CC1COCCN1c1cc(-c2ccnn2C)c2ccnc(-c3ccn[nH]3)c2n1 (stereo not given) + Nc1ccc(C#CCN(C(=O)Cc2ncc(C(F)(F)F)cc2C(F)(F)F)c2ccc(F)cc2)nn1 = 32.5
CCc1cc2c(N3CCc4c(cc(Cn5ccnc5)cc4-c4cn(C)nc4C(F)(F)F)C3=O)ccnc2c(OC)n1 + COC1C(OC(N)=O)C(O)C(Oc2ccc3c(O)c(NC(=O)c4ccc(O)c(CC=C(C)C)c4)c(=O)oc3c2C)OC1(C)C = 86.7
COc1cccc2c1C(=O)c1c(O)c3c(c(O)c1C2=O)CC(O)(C(=O)CO)CC3OC1CC(N)C(O)C(C)O1 (stereo not given) + COC1C(OC(N)=O)C(O)C(Oc2ccc3c(O)c(NC(=O)c4ccc(O)c(CC=C(C)C)c4)c(=O)oc3c2C)OC1(C)C = 31.1
C#Cc1c(F)ccc2cc(O)cc(-c3ncc4c(N5CC6CCC(C5)N6)nc(OCC56CCCN5CC(F)C6)nc4c3F)c12 (stereo not given) + COC1C(OC(N)=O)C(O)C(Oc2ccc3c(O)c(NC(=O)c4ccc(O)c(CC=C(C)C)c4)c(=O)oc3c2C)OC1(C)C = 95.1
CC(C)n1c(=O)n(C)c2cnc3cc(F)c(-c4ccc(OCCCN5CCCCC5)nc4)cc3c21 + Nc1ccc(C#CCN(C(=O)Cc2ncc(C(F)(F)F)cc2C(F)(F)F)c2ccc(F)cc2)nn1 = 111
C=CC(=O)N1CCN(c2nc(=O)n(-c3c(C)ccnc3C(C)C)c3nc(-c4c(O)cccc4F)c(F)cc23)C(C)C1 (stereo not given) + Nc1ccc(C#CCN(C(=O)Cc2ncc(C(F)(F)F)cc2C(F)(F)F)c2ccc(F)cc2)nn1 = 116
C=CC(=O)N1CCN(c2nc(=O)n(-c3c(C)ccnc3C(C)C)c3nc(-c4c(O)cccc4F)c(F)cc23)C(C)C1 (stereo not given) + Cc1cccc(N(C)C(=O)C2C(O)CCN2c2nc(C)cc(C(F)(F)F)c2C#N)c1 = 115

Could you report viability, T/C for every entry in the following list?
1. COc1cc2cc(C(=O)CCC(=O)O)sc2cc1OC + COC1C(OC(N)=O)C(O)C(Oc2ccc3c(O)c(NC(=O)c4ccc(O)c(CC=C(C)C)c4)c(=O)oc3c2C)OC1(C)C
2. O=c1[nH]cc(F)c(=O)[nH]1 + Cc1cccc(N(C)C(=O)C2C(O)CCN2c2nc(C)cc(C(F)(F)F)c2C#N)c1
3. O=C(c1cc(Cc2n[nH]c(=O)c3ccccc23)ccc1F)N1CCN(C(=O)C2CC2)CC1 + Nc1ccc(C#CCN(C(=O)Cc2ncc(C(F)(F)F)cc2C(F)(F)F)c2ccc(F)cc2)nn1
4. O=C(c1cc(Cc2n[nH]c(=O)c3ccccc23)ccc1F)N1CCN(C(=O)C2CC2)CC1 + Cc1cccc(N(C)C(=O)C2C(O)CCN2c2nc(C)cc(C(F)(F)F)c2C#N)c1
5. O=C(Nc1ccc(O)c(NS(=O)(=O)c2ccc(F)cc2)c1)c1ccc(-c2ccccc2)cc1 + Cc1cccc(N(C)C(=O)C2C(O)CCN2c2nc(C)cc(C(F)(F)F)c2C#N)c1
6. CC(C)n1c(=O)n(C)c2cnc3cc(F)c(-c4ccc(OCCCN5CCCCC5)nc4)cc3c21 + Cc1cccc(N(C)C(=O)C2C(O)CCN2c2nc(C)cc(C(F)(F)F)c2C#N)c1
7. COc1cccc2c1C(=O)c1c(O)c3c(c(O)c1C2=O)CC(O)(C(=O)CO)CC3OC1CC(N)C(O)C(C)O1 (stereo not given) + Cc1cccc(N(C)C(=O)C2C(O)CCN2c2nc(C)cc(C(F)(F)F)c2C#N)c1

// result
1. 95.1
2. 84.3
3. 99.8
4. 79.3
5. 92
6. 83.9
7. 35.3

Could you report viability, T/C for every entry in the following list?
1. CNCc1ccc(-c2[nH]c3cc(F)cc4c3c2CCNC4=O)cc1 + Nc1ccc(C#CCN(C(=O)Cc2ncc(C(F)(F)F)cc2C(F)(F)F)c2ccc(F)cc2)nn1
2. COc1cc(C2c3cc4c(cc3C(OC3OC5COC(C)OC5C(O)C3O)C3COC(=O)C23)OCO4)cc(OC)c1O (stereo not given) + Cc1cccc(N(C)C(=O)C2C(O)CCN2c2nc(C)cc(C(F)(F)F)c2C#N)c1
3. CCc1cc2c(N3CCc4c(cc(Cn5ccnc5)cc4-c4cn(C)nc4C(F)(F)F)C3=O)cc(C)nc2c(OC)n1 + COC1C(OC(N)=O)C(O)C(Oc2ccc3c(O)c(NC(=O)c4ccc(O)c(CC=C(C)C)c4)c(=O)oc3c2C)OC1(C)C
4. CC1COCCN1c1cc(C2(O)CC3CCC(C2)O3)c2cnn(-c3ccn[nH]3)c2n1 (stereo not given) + COC1C(OC(N)=O)C(O)C(Oc2ccc3c(O)c(NC(=O)c4ccc(O)c(CC=C(C)C)c4)c(=O)oc3c2C)OC1(C)C
5. CCCS(=O)(=O)Nc1ccc(F)c(C(=O)c2c[nH]c3ncc(-c4ccc(Cl)cc4)cc23)c1F + Nc1ccc(C#CCN(C(=O)Cc2ncc(C(F)(F)F)cc2C(F)(F)F)c2ccc(F)cc2)nn1

// result
1. 117
2. 84.7
3. 79.9
4. 29.4
5. 102

# credit: PubChem BioAssay AID1963828
